- run.description: TOX21_p53_BLA_p3_viability: Viability Assessment in the Tox21 HCT-116 p53 Agonism Beta-lactamase Assay, Phase 3 (AID 2283593);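 note: cells exposed to compound for 16 h before reading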
Records with an inconclusive call do not appear. The source made the active and inactive calls. Rule for the calls: active = hit-call score of the fitted dose curve at least 0.9, where 1 is the maximum; inconclusive = response in the unintended direction; inactive = score below 0.9.
The reply should be one of these categories: true (1) (active), false (0) (inactive)

Request: Hi, sorry to bother you, what did the test record for CC(CO)(CO)C(=O)O ?
Result: false (0)

Request: Same thing, different molecule: C[C@@H](O[C@H]1OCCN(Cc2n[nH]c(=O)[nH]2)[C@H]1c1ccc(F)cc1)c1cc(C(F)(F)F)cc(C(F)(F)F)c1
Result: true (1)

Request: Then what about the molecule Cn1nnc2c(C(N)=O)ncn2c1=O ?
Result: false (0)

Request: Same lookup for COc1cccc(O)c1O , please.
Result: false (0)

Request: Queued: CC(C)(O)CCCC1=CCC(C=O)CC1 (stereo not drawn)
Result: false (0)

Request: Subsequent entry: CN1[C@@H](CC(=O)c2ccccc2)CCC[C@H]1C[C@H](O)c1ccccc1
Result: false (0)

Request: Again, but for NS(=O)(=O)Cc1noc2ccccc12
Result: false (0)

Request: Cool, now Cc1cc(N)c2cc(NC(=O)Nc3ccc4nc(C)cc(N)c4c3)ccc2n1
Result: false (0)

Request: Now the molecule CC(=O)NC(Cc1ccccc1)C(=O)O (stereo not drawn)
Result: false (0)

Request: Please do the same for CCCCCCCCCCCC(=O)N(CC)CC as well.
Result: false (0)

Request: Now consider C=Cc1ccc(S(=O)(=O)O)cc1 .
Result: false (0)

Request: Same question for Oc1ccc2c(c1)OCO2 please.
Result: false (0)

Request: Please do the same for CO[Si](CCCNc1ccccc1)(OC)OC as well.
Result: false (0)
